target: Solute carrier family 12 member 5 (Homo sapiens, UniProt Q9H2X9); experiment: concentration-response of KCC2 transport modulators – cell-based, HEK293 KCC2, FluoZin-2 fluorescence, dose response (AID 1736)
Parameter measured: log10(EC50) (log10 of the value in µM)
Heads up, the numbers here are log10 of EC50 in µM units.

Identify measured log10(EC50) corresponding to Cc1cccc(OCCc2nnc(N)s2)c1C
1.72

Tell me log10(EC50) reported for O=C(NC1CCCC1)C(c1ccncc1)N(Cc1ccco1)C(=O)c1ccc(-c2ccccc2)[nH]1 (stereo not given)
0.80

Find the measured log10(EC50) of Cc1n[nH]c(O)c1C(c1ccc(-c2ccc(F)cc2)o1)c1c(C)n[nH]c1O and report it.
1.16

Given O=C(NCc1cccs1)c1nc2c(nnn2Cc2ccc(F)cc2)c(=O)[nH]1 , respond with its log10(EC50).
1.00

# return recorded log10(EC50) for entry COc1ccc(OC)c(-n2nnnc2SCC(=O)NCCc2ccccc2)c1
2.38

Give me measured log10(EC50), please, for this molecule: O=C(CSc1nnc(C2CC2)n1Cc1ccccc1)c1cc2ccccc2o1
0.72

Supply reported log10(EC50) belonging to this molecule: COc1cc(C=NN(C)c2ccccc2)ccc1O
4.00

Tell us which log10(EC50) value is on record for O=C(CNC(=O)/C(=C/c1ccccc1)NC(=O)c1ccc(Br)cc1)OCc1ccccc1
-0.17

Supply log10(EC50) value. Item: CCC(Sc1nc(C)cc(=O)[nH]1)C(=O)Nc1sc2c(c1C#N)CCCC2 (stereo not given)
1.41

Quickly give me recorded log10(EC50) for CCc1ccc(OCCNC(=O)c2ccccc2SCc2ccc(F)cc2)cc1
-0.52

----------
Molecular target: Solute carrier family 12 member 5 (Homo sapiens)
Sequence (Q9H2X9 whole entry): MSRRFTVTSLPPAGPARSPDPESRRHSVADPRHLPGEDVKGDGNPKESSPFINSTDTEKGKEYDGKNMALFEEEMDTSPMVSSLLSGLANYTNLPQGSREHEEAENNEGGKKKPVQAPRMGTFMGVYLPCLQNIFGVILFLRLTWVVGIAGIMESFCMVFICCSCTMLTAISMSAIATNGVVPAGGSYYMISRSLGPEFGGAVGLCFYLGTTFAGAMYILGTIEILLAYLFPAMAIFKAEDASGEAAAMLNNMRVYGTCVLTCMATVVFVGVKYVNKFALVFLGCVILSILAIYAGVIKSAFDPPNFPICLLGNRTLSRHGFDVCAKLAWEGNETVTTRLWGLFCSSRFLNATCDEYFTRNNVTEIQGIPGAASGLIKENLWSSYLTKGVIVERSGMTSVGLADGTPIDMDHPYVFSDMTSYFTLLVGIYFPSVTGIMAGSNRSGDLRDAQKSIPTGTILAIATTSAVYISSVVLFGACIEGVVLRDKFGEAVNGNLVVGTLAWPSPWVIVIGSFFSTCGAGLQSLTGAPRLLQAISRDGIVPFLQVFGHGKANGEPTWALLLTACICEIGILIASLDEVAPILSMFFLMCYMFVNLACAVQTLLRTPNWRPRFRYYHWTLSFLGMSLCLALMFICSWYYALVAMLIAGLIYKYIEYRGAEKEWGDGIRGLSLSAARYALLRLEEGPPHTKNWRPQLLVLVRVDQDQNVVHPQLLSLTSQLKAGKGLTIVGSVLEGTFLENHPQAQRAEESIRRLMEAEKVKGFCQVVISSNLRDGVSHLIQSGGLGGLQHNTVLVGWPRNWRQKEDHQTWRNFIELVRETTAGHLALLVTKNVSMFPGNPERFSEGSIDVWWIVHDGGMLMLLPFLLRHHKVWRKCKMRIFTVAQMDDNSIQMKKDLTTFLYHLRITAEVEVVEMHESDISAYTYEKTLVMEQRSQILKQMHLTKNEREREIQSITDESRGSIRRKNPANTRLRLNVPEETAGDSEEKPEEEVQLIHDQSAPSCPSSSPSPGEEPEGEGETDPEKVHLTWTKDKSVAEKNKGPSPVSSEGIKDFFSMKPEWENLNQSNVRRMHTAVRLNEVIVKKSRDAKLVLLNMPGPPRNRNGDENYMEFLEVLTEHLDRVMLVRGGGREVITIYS
Test: concentration-response of KCC2 transport modulators – cell-based, HEK293 KCC2, FluoZin-2 fluorescence, dose response (AID 1736)
Parameter measured: EC50 (µM)
I only need the number, in µM, no unit after it.

Quickly give me recorded EC50 for Cc1c(N=C2Nc3cccc4cccc2c34)c(=O)n(-c2ccccc2)n1C
1.89

Return the recorded EC50 value; entry: Cc1ccc(C(=O)Nc2nc(=O)n(C(=O)c3ccccc3Cl)s2)cc1
3.93

Look up EC50 of S=C(NN=Cc1cccc2ccccc12)Nc1cccc(Cl)c1 and report it.
12.7

Identify measured EC50 corresponding to COc1ccc(-c2cc(CCCC(=O)NCCc3ccccc3)no2)cc1
1.84

Output measured EC50 for this item: COc1ccc(NC(=S)NC(N)=Nc2nc(C)c3ccccc3n2)cc1
70.5

Given the compound Cc1nn2c(nc(O)c3ccccc32)c1C=O , write its reported EC50.
40.9

Tell us which EC50 value is on record for Cc1ccc(Nc2nnc(SCC(=O)c3ccc(Br)s3)s2)c(C)c1
1.02

Give the reported EC50 for this compound. O=C(CN(c1ccc2c(c1)OCCO2)S(=O)(=O)c1ccccc1)N1CCN(Cc2ccccc2)CC1
2.43

Return reported EC50. Input compound: Cc1ccc(/C=C2/Sc3ccccc3N(CC(=O)NCCCOC(C)C)C2=O)cc1
276

For the compound O=C(NC(=S)Nc1nc(-c2cccc([N+](=O)[O-])c2)cs1)c1cc(Cl)ccc1Cl , report EC50.
34.7

----------
Provide the reported pEC50 of each item.
target: Solute carrier family 12 member 5 (Homo sapiens, UniProt Q9H2X9); assay: concentration-response of KCC2 transport modulators – cell-based, HEK293 KCC2, FluoZin-2 fluorescence, dose response (AID 1736)
Convention used: pEC50 is expressed as -log10 of the molar concentration.

In one line, give reported pEC50 of the entry O=C(Cn1cnc2c(nnn2Cc2ccc(F)cc2)c1=O)N1CCN(c2ccccc2)CC1 .
5.09

Kindly indicate its recorded pEC50. Item: COc1ccc(C(=O)N2CCCC(c3ccccc3)C2)cc1 (stereo unspecified)
3.96

Identify measured pEC50 associated with Cc1nc2cc(C(F)(F)F)ccc2n1C1CCN(Cc2nnnn2Cc2ccc3c(c2)OCO3)CC1
4.79

Please list pEC50 recorded for the compound O=[N+]([O-])c1cc(-n2c(O)c3c(c2O)CCCC3)ccc1NC1CCN(Cc2ccccc2)CC1
5.26

For the compound O=C(Cn1cnc2c(nnn2Cc2ccc(F)cc2)c1=O)NCc1ccc2c(c1)OCO2 , give its measured pEC50 value.
5.58

For the compound CN(CC(=O)N1CCN(Cc2ccccc2)CC1)S(=O)(=O)c1cccc2nsnc12 , give its reported pEC50.
6.02

Identify pEC50 associated with the compound COc1cc(C(=S)N2CCOCC2)cc(OC)c1OC(=O)Cc1ccccc1
5.94

Please list pEC50 recorded for the compound Cc1oc(-c2ccccc2)nc1C[S+]([O-])CC(=O)N1CCc2ccccc2C1 (stereo unspecified)
5.31

Please report pEC50 for the following compound: CN(C)S(=O)(=O)c1cccc(NC(=O)c2cc3c(cc2Cl)N2CCCCC=C2NS3(=O)=O)c1
7.17

Recall and state the measured pEC50 for CCCCCN1C/C=C\C(c2ccc(OC)cc2)N(Cc2ccc(F)cc2)C(=O)C1 (stereo unspecified) .
5.10

For Cc1ccc(C)c(C(=O)NC(C)CCc2ccccc2)c1 (stereo unspecified) , write its pEC50.
5.42

Give the value of pEC50 reported for the following: c1ccc(-c2csc(N=NCc3cccnc3)n2)cc1
4.45

Note down pEC50 recorded for Cc1ccc(S(=O)(=O)N(CCC(=O)O)Cc2ccc(Cl)cc2)cc1
6.45

Name the recorded pEC50 of the item CN1/C(=C\C(=S)NC(=O)c2cccc(Br)c2)C(C)(C)c2ccccc21 in your answer.
5.43

Tell me pEC50 reported for CC(NC(=O)CCc1nnc(-c2ccc(-c3ccccc3)cc2)o1)c1nccs1 (stereo unspecified)
5.32

Check the records and state pEC50 for O=C(Cn1c(-c2ccc(Cl)cc2)noc1=O)N1CCN(c2ccccc2F)CC1
5.22

Give the reported value of pEC50 for this record: O=C(NCc1cccnc1)c1ccc(COc2ccc(Cl)cc2Cl)o1
2.69

Read off the recorded pEC50 for O=C1OC(c2ccc(O)cc2)(c2ccc(O)cc2)c2ccccc21
5.48

Return the recorded pEC50 value; entry: O=C(OCC(=O)N1CCN(C(=O)c2ccco2)CC1)c1sc2ccccc2c1Cl
6.22

Entry COc1ccc(S(=O)(=O)N(C)CC(=O)N2CCN(Cc3ccccc3)CC2)cc1C needs its pEC50 filled in; supply it.
5.45

Tell us which pEC50 value is on record for O=C(CSc1nnc(Cc2ccccc2)o1)c1ccc(F)cc1
5.41
